tested on: Pseudomonas fluorescens HPPD polypeptide (wild-type and mutants); assay: Coupled HPPD activity assay: turnover and residual turnover in crude HPPD polypeptide extracts with and without Cmpd. 1; assay type: biochemical; settings: 100 μM Cmpd. 1, normalised to turnover without inhibitor
Endpoint: Residual turnover [%] (%)
Unit % implied. Number only.

-- ask Which Residual turnover [%] value is on record for SEQ ID NO:46 (protein, mutant HPPD polypeptide) MADLYENPMGLMGFEFIEFASPTPGTLEPIFEIMGFTKVATHRSKNVHLYRQGEINLILNNEPNSIASYFAAEHGPSVCGMAFRVKDSQKAYNRALELGAQPIHIDTGPMELNLPAIKGIGGAPLYLIDRFGEGSSIYDIDFVYLEGVERNPVGAGLKVIDHLTHNVYRGRMVYWANFYEKLFNFREARYFDIKGEYTGLTSKAMSAPDGMIKIPLNEESSKGAGQIEEFLMQFNGEGIQHVAFLTDDLVKTWDALKKIGMRFMTAPGDEYYEMLEGRLPDHGEPVDQLQARGILLDGSSVEGDKRLLLQIFSEKLMGPVFFEFIQRKGDDGFGPDSFKVLFESIERDQVRRGVLTAD ?
-- reply 36

-- ask Query: Residual turnover [%]; subject: SEQ ID NO:11 (protein, mutant HPPD polypeptide) MADLYENPMGLMGFEFIEFASPTPGTLEPIFEIMGFTKVATHRSKNVHLYRQGEINLILNNEPNSIASYFAAEHGPSVCGMAFRVKDSQKAYNRALELGAQPIHIDTGPMELNLPAIKGIGGAPLYLIDRFGEGSSIYDIDFVYLEGVERNPVGAGLKVIDHLTHNVYRGRMVYWANFYEKLFNFREARYFDIKGEYTGLTSKAMSAPDGMIRIPLNEESSKGAGQIEEFLMQFNGEGIQHVAFLTDDLVKTWDALKKIGMRFMTAPGDEYYEMLEGRLPDHGEPVDQLQARGILLDGSSVEGDKRLLLQIFSEQLMGPVFFEFIQRKGDDGFGPDSFKVLFEQIERDQVRRGVLTAD
-- reply 46

-- ask Which Residual turnover [%] is listed for SEQ ID NO:31 (protein, mutant HPPD polypeptide) MADLYENPMGLMGFEFIEFASPTPGTLEPIFEIMGFTKVATHRSKNVHLYRQGEINLILNNEPNSIASYFAAEHGPSVCGMAFRVKDSQKAYNRALELGAQPIHIDTGPMELNLPAIKGIGGAPLYLIDRFGEGSSIYDIDFVYLEGVERNPVGAGLKVIDHLTHNVYRGRMVYWANFYEKLFNFREARYFDIKGEYTGLTSKAMSAPDGMIRIPLNEESSKGAGQIEEFLMQFNGEGIQHVAFLTDDLVKTWDALKKIGMRFMTAPGDEYYEMLEGRLPDHGEPVDQLQARGILLDGSSVEGDKRLLLQIFSEKLMGPVFFEFIQRKGDDGFGPHSFKVLFESMERDQVRRGVLTAD ?
-- reply 48

-- ask State the recorded Residual turnover [%] for this entry: SEQ ID NO:48 (protein, mutant HPPD polypeptide) MADLYENPMGLMGFEFIEFASPTPGTLEPIFEIMGFTKVATHRSKNVHLYRQGEINLILNNEPNSIASYFAAEHGPSVCGMAFRVKDSQKAYNRALELGAQPIHIDTGPMELNLPAIKGIGGAPLYLIDRFGEGSSIYDIDFVYLEGVERNPVGAGLKVIDHLTHNVYRGRMVYWANFYEKLFNFREARYFDIKGEYTGLTSKAMSAPDGMIKIPLNEESSKGAGQIEEFLMQFNGEGIQHVAFLTDDLVKTWDALKKIGMRFMTAPGDEYYEMLEGRLPDHGEPVDQLQARGILLDGSSVEGDKRLLLQIFSETLMGPVFFEFIQRKGDDGFGPDSFKVLFESIERDQVRRGVLTAD
-- reply 38
